- TEST NAME: Thermodynamic solubility in water and bio-media (SGF, FaSSIF, FeSSIF) at 37° C.
- Assay type: physicochemical
- DETAILS: thermodynamic from solid; FeSSIF, 37° C., 1 Hr
READOUT NAME: solubility at 1 h
Answer by giving the amount and then stating its unit.

// solubility at 1 h lookup, key: Cn1c(Nc2nc3ccccc3o2)nc2cc(C(=O)NCCOCCO)ccc21.O=P(O)(O)O [1:1 Compound (I) Phosphate]
1400 µg/mL

----------
- TEST NAME: Thermodynamic solubility in water and bio-media (SGF, FaSSIF, FeSSIF) at 37° C.
- Assay type: physicochemical
- DETAILS: thermodynamic from solid; FaSSIF, 37° C., 24 Hrs
READOUT NAME: solubility at 24 h
Answer by giving the amount and then stating its unit.

// solubility at 24 h lookup, key: Cn1c(Nc2nc3ccccc3o2)nc2cc(C(=O)NCCOCCO)ccc21.O=P(O)(O)O [1:1 Compound (I) Phosphate]
0.07 mg/mL

----------
Field: solubility at 24 h. Provide a value for each of the compounds that follow.
- TEST NAME: Thermodynamic solubility in water and bio-media (SGF, FaSSIF, FeSSIF) at 37° C.
- Format: physicochemical
- DETAILS: simulated gastric fluid, thermodynamic from solid; SGF, 37° C., 24 Hrs
- Procedure: Specifically, about 40 mg samples (calculated with freebase) were added to 4.0 mL of each buffer. After shaking at 100 rpm at 37° C. for 1/4/24 hour(s), about 1.0 mL of each suspension was centrifuged for 5 minutes. The solids were analyzed by XRPD for crystal form, and the filtrates of supernatants were detected by HPLC for solubility and by pH meter for pH value.

// solubility at 24 h lookup, key: Cn1c(Nc2nc3ccccc3o2)nc2cc(C(=O)NCCOCCO)ccc21.O=P(O)(O)O [1:1 Compound (I) Phosphate]
> 28.4 mg/mL

Request: "Cn1c(Nc2nc3ccccc3o2)nc2cc(C(=O)NCCOCCO)ccc21"
7.08 mg/mL

----------
- TEST NAME: Thermodynamic solubility in water and bio-media (SGF, FaSSIF, FeSSIF) at 37° C.
- Type: physicochemical
- DETAILS: simulated gastric fluid, thermodynamic from solid; SGF, 37° C., 1 Hr
READOUT NAME: solubility at 1 h

// solubility at 1 h lookup, key: Cn1c(Nc2nc3ccccc3o2)nc2cc(C(=O)NCCOCCO)ccc21.O=P(O)(O)O [1:1 Compound (I) Phosphate]
> 25900 µg/mL

Request: Cn1c(Nc2nc3ccccc3o2)nc2cc(C(=O)NCCOCCO)ccc21 [Compound (I)]
7040 µg/mL

----------
- TEST NAME: Thermodynamic solubility in water and bio-media (SGF, FaSSIF, FeSSIF) at 37° C.
- Type: physicochemical
- DETAILS: thermodynamic from solid; water, 37° C., 24 Hrs
READOUT NAME: solubility at 24 h

// solubility at 24 h lookup, key: Cn1c(Nc2nc3ccccc3o2)nc2cc(C(=O)NCCOCCO)ccc21.O=P(O)(O)O [1:1 Compound (I) Phosphate]
2060 µg/mL

----------
- TEST NAME: Thermodynamic solubility in water and bio-media (SGF, FaSSIF, FeSSIF) at 37° C.
- Type: physicochemical
- DETAILS: thermodynamic from solid; FeSSIF, 37° C., 4 Hrs
READOUT NAME: solubility at 4 h (µg/mL)
Respond with the bare value in µg/mL.

// solubility at 4 h lookup, key: Cn1c(Nc2nc3ccccc3o2)nc2cc(C(=O)NCCOCCO)ccc21.O=P(O)(O)O [1:1 Compound (I) Phosphate]
770

----------
- TEST NAME: pKa of the freebase form
- Type: physicochemical
- DETAILS: basic
READOUT NAME: pKa

// pKa lookup, key: Cn1c(Nc2nc3ccccc3o2)nc2cc(C(=O)NCCOCCO)ccc21 [Compound (I)]
~2.75

----------
- TEST NAME: Thermodynamic solubility in water and bio-media (SGF, FaSSIF, FeSSIF) at 37° C.
- Type: physicochemical
- DETAILS: thermodynamic from solid; FaSSIF, 37° C., 1 Hr
READOUT NAME: solubility at 1 h (µg/mL)
Respond with the bare value in µg/mL.

// solubility at 1 h lookup, key: Cn1c(Nc2nc3ccccc3o2)nc2cc(C(=O)NCCOCCO)ccc21.O=P(O)(O)O [1:1 Compound (I) Phosphate]
190

----------
- TEST NAME: Thermodynamic solubility in water and bio-media (SGF, FaSSIF, FeSSIF) at 37° C.
- Assay type: physicochemical
- DETAILS: thermodynamic from solid; FaSSIF, 37° C., 4 Hrs
READOUT NAME: solubility at 4 h (µg/mL)
Respond with the bare value in µg/mL.

// solubility at 4 h lookup, key: Cn1c(Nc2nc3ccccc3o2)nc2cc(C(=O)NCCOCCO)ccc21.O=P(O)(O)O [1:1 Compound (I) Phosphate]
180

----------
Field: AUC(0-inf). Provide a value for each of the molecules that follow.
- TEST NAME: PK study in Cynomolgus macaques, PO single dose
- Format: in vivo, Cynomolgus macaques (Macaca fascicularis)
- DETAILS: male, cynomolgus monkey, blood; Cynomolgus macaques, 10 mg/Kg PO single dose
Respond with the bare value in ng·h/mL.

// AUC(0-inf) lookup, key: Cn1c(Nc2nc3ccccc3o2)nc2cc(C(=O)NCCOCCO)ccc21.O=P(O)(O)O [1:1 Compound (I) Phosphate]
3590

Request: "Cn1c(Nc2nc3ccccc3o2)nc2cc(C(=O)NCCOCCO)ccc21"
2030

----------
Field: Cmax. Provide a value for each of the molecules that follow.
- TEST NAME: PK study in Cynomolgus macaques, PO single dose
- Type: in vivo, Cynomolgus macaques (Macaca fascicularis)
- DETAILS: male, cynomolgus monkey, blood; Cynomolgus macaques, 10 mg/Kg PO single dose
- Description: A PK Study of Crystalline form of 1:1 compound (I) Phosphate and compound (I) crystal form was conducted in Cynomolgus macaques (Cynomolgus non-human primates; Macaca fascicularis). […] Blood samples were collected at 0.25, 0.5, 1, 2, 4, 6, 8 and 24 hours, and were analyzed to determine Cmax and exposure (AUC).
Respond with the bare value in ng/mL.

// Cmax lookup, key: Cn1c(Nc2nc3ccccc3o2)nc2cc(C(=O)NCCOCCO)ccc21 [Compound (I)]
164

Request: Cn1c(Nc2nc3ccccc3o2)nc2cc(C(=O)NCCOCCO)ccc21.O=P(O)(O)O [1:1 Compound (I) Phosphate]
322
